// provenance: ChEMBL document CHEMBL6083250

Assay: Lipophilicity, logD of compound at pH 7.4 by chromatography
Type: physicochemical
Details: buffer
Kind request: treat 3 as inclusive, so chromatographic logD at 3 or higher is rule met, anything lower is rule not met.

Use these answered entries as a reference point.
- compound: "O=C(O)CC(CN1CC(C(F)(F)CCc2ccc3c(n2)NCCC3)C1)c1ccnc(OC2CC2)c1 (racemic)"
  assigned-label: "rule not met"
- compound: "CCOc1cccc(C(CC(=O)O)CN2CC(C(F)(F)CCc3ccc4c(n3)NCCC4)C2)c1 (racemic)"
  assigned-label: "rule met"
- compound: "O=C(O)CC(CN1CC(C(F)(F)CCc2ccc3c(n2)NCCC3)C1)c1cccc2c1OCC2 (racemic)"
  assigned-label: "rule met"
- compound: "O=C(O)CC(CN1CC(C(F)(F)CCc2ccc3c(n2)NCCC3)C1)c1cccc(OC2CCOCC2)c1 (racemic)"
  assigned-label: "rule met"
- compound: "O=C(O)CC(CN1CC(C(F)(F)CCc2ccc3c(n2)NCCC3)C1)c1ccnc(C2CC2)c1 (racemic)"
  assigned-label: "rule not met"

Could you verify whether the entry O=C(O)CC(CN1CC(C(F)(F)CCc2ccc3c(n2)NCCC3)C1)c1cccc(N2CCOCC2)c1 (racemic) shows chromatographic logD of no less than 3?
rule not met

And what about the compound COc1cc(C(CC(=O)O)CN2CC(C(F)(F)CCc3ccc4c(n3)NCCC4)C2)ccc1F (racemic) ?
rule met

And what about the compound O=C(O)CC(CN1CC(C(F)(F)CCc2ccc3c(n2)NCCC3)C1)c1cccc(O[C@@H]2CCOC2)c1 (mixture of isomers) ?
rule not met

And what about the compound COc1cc(C(CC(=O)O)CN2CC(C(F)(F)CCc3ccc4c(n3)NCCC4)C2)ccc1C#N (racemic) ?
rule not met

And what about the compound `COCCOc1cccc([C@@H](CC(=O)O)CN2CC(SCCc3ccc4c(n3)NCCC4)C2)c1` ?
rule not met

And what about the compound Cc1cc(C)n(-c2cccc(C(CC(=O)O)CN3CC(C(F)(F)CCc4ccc5c(n4)NCCC5)C3)c2)n1 (racemic) ?
rule met
